The following compounds are shown together with reported inhibition at 30 µM values.
# system_name: KCNQ2 channels (Homo sapiens, UniProt O43526)
# protocol_summary: KCNQ2 automated patch clamp assay
# Format: cell-based
# stated_conditions: read-out: KCNQ2 % at 30 μM (IC50 column, saturating response not obtained)
property_measured: inhibition at 30 µM (%)

1. CCC(NC(=O)c1ccccc1N1CCCC1)c1ccccc1 (stereo not drawn); 38
2. CCC(C(=O)Nc1ccccc1N(C)Cc1ccccc1)c1ccccc1 (stereo not drawn); 27.1
3. CCC(C(=O)Nc1ccccc1N(C)C)c1ccccc1 (stereo not drawn); 59.8
4. CC(C)C(C(=O)Nc1ccccc1N1CCCC1)c1ccccc1 (stereo not drawn); 25.4
5. CCC(C(=O)Nc1ccccc1N1CCCCC1)c1ccccc1 (stereo not drawn); 32
6. CCC(C(=O)Nc1ccccc1OC)c1ccccc1 (stereo not drawn); 28.1

====

# protocol_summary: Snapshot in vivo PK, IP plasma and brain levels
# stated_conditions: brain, 10 mg/kg
property_measured: concentration at 1 h (nM)

1. CC[C@H](C(=O)Nc1ccccc1N1CCCC1)c1ccccc1 [(S)-5]; 672
